# assay system: adenosine A2 receptor (Rattus norvegicus)
# Construct: from tissue
# Sequence (P30543 whole entry): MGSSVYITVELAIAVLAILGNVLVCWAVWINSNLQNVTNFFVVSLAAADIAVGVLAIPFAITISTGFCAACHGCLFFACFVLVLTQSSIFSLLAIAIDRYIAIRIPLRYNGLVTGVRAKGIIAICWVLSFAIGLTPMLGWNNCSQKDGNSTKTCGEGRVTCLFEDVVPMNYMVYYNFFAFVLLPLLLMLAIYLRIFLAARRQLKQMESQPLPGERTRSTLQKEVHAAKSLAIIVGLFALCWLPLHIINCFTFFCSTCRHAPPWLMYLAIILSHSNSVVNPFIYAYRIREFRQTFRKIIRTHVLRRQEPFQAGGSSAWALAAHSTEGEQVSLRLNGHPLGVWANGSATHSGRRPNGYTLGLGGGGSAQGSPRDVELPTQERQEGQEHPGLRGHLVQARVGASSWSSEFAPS
# test name: in vitro binding to adenosine A2 receptor ([3H]-CGS 21680)
endpoint: Ki (µM)

>>> test_result("OC[C@H]1O[C@@H](n2cnc3c(NC4CCCC4)ncnc32)[C@H](O)[C@@H]1O [CPA, N-(cyclopentyl)adenosine, reference compound]")
0.192

----------
# assay system: adenosine A2 receptor (Rattus norvegicus)
# Construct: from tissue
# test name: in vitro binding to adenosine A2 receptor ([3H]-CGS 21680)
# condition notes: radioligand [3H]-CGS 21680; read-out: A2 Receptor Binding (Ki)
endpoint: Ki (µM)

>>> test_result("O[C@@H]1[C@H](O)[C@@H](CF)O[C@H]1n1cnc2c(NN3CCCCC3)nc(Cl)nc21")
2.42
>>> test_result("CONc1nc(Cl)nc2c1ncn2[C@@H]1O[C@H](CCl)[C@@H](O)[C@H]1O")
4.66
>>> test_result("O[C@@H]1[C@H](O)[C@@H](CCl)O[C@H]1n1cnc2c(NN3CCCCC3)nc(Cl)nc21")
2.74
>>> test_result("CN(C)Nc1nc(Cl)nc2c1ncn2[C@@H]1O[C@H](CCl)[C@@H](O)[C@H]1O")
6.6

----------
Reported Ratio A2/A1 values are given for each entry in this list.
# assay system: adenosine A1 receptor (Rattus norvegicus, UniProt P25099)
# Construct: from tissue
# Sequence (P25099 whole entry): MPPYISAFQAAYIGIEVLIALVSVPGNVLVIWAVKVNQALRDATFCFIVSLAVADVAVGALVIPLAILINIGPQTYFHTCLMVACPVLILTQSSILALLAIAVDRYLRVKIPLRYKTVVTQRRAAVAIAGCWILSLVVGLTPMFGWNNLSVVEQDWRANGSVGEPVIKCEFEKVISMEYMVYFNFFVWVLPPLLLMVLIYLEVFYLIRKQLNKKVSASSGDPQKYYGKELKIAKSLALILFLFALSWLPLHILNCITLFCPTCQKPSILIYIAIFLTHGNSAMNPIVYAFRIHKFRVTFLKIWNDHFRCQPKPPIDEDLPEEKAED
# test name: in vitro binding to adenosine A1 receptor ([3H]-R-PIA)
# condition notes: ratio of A2 to A1 receptor binding Ki
# Description: Evaluation of in vitro binding to adenosine A1 and A2 receptors. The methods both for the above in vitro examination of the compounds and the method used for DMCM-induced seizures in vivo are summarized in the European Journal of Pharmacology, 1993, 224, 221-228.
endpoint: Ratio A2/A1

>>> test_result("O[C@@H]1[C@H](O)[C@@H](CF)O[C@H]1n1cnc2c(NN3CCCCC3)nc(Cl)nc21")
457
>>> test_result("CONc1nc(Cl)nc2c1ncn2[C@@H]1O[C@H](CCl)[C@@H](O)[C@H]1O")
63
>>> test_result("CN(C)Nc1nc(Cl)nc2c1ncn2[C@@H]1O[C@H](CCl)[C@@H](O)[C@H]1O")
600
>>> test_result("O[C@@H]1[C@H](O)[C@@H](CCl)O[C@H]1n1cnc2c(NN3CCCCC3)nc(Cl)nc21")
428

----------
Reported ED50 values are given for each entry in this list.
# test name: DMCM-induced seizures in vivo
# condition notes: ED50, DMCM-induced seizures in vivo; read-out: DMCM-ind. seizures (ED50, mg/kg)
endpoint: ED50 (mg/kg)

>>> test_result("O[C@@H]1[C@H](O)[C@@H](CCl)O[C@H]1n1cnc2c(NN3CCCCC3)nc(Cl)nc21")
0.4
>>> test_result("CONc1nc(Cl)nc2c1ncn2[C@@H]1O[C@H](CCl)[C@@H](O)[C@H]1O")
6.1
>>> test_result("O[C@@H]1[C@H](O)[C@@H](CF)O[C@H]1n1cnc2c(NN3CCCCC3)nc(Cl)nc21")
1
>>> test_result("CN(C)Nc1nc(Cl)nc2c1ncn2[C@@H]1O[C@H](CCl)[C@@H](O)[C@H]1O")
4.7

----------
# assay system: adenosine A1 receptor (Rattus norvegicus)
# Construct: from tissue
# test name: in vitro binding to adenosine A1 receptor ([3H]-R-PIA)
# condition notes: radioligand [3H]-R-PIA
pKi: −log10 of the molar value.
Reported pKi values are given for each entry in this list.
endpoint: pKi

>>> test_result("CONc1nc(Cl)nc2c1ncn2[C@@H]1O[C@H](CCl)[C@@H](O)[C@H]1O [Example 12]")
7.13
>>> test_result("O[C@@H]1[C@H](O)[C@@H](CCl)O[C@H]1n1cnc2c(NN3CCCCC3)nc(Cl)nc21 [Example 1]")
8.19
>>> test_result("CN(C)Nc1nc(Cl)nc2c1ncn2[C@@H]1O[C@H](CCl)[C@@H](O)[C@H]1O [Example 11]")
7.96
